Quick reference for Number of isolates inhibited at MIC 0.5 μg/mL among some molecules
- Test system: Candida orthopsilosis
- assay_overview: Broth microdilution of invasive fungal isolates (CLSI M27-A3/M38-A2)
- Format: cell-based
- protocol_conditions: 10 isolates
Starred links: 1 amine or outer side, 2 acyl side, 3 side chain; linkers in the order of their positions; H or OH if unused. Positions of bridges follow the written chain, without caps; N, C: chain ends. Non-standard residues stand in square brackets, D forms with d. Residues, ends and D or L forms follow the SMILES beside them. *: point of attachment. Orn(4R-OH,5R-OCH2CH2NMe3+) = C[N+](C)(C)CCO[C@@H](N[*:3])[C@H](O)C[C@H](N[*:1])C(=O)[*:2]; hTyr(3S-OH,4S-OH,3'-OSO3H) = N[C@H](C(=O)O)[C@H](O)[C@@H](O)c1ccc(O)c(OS(=O)(=O)O)c1; pTerphenylCO(4''-OnC5H11) = CCCCCOc1ccc(-c2ccc(-c3ccc(C(=O)*)cc3)cc2)cc1; Orn(4R-OH,5R-OH) = O=C([C@H](C[C@@H](O)[C@@H](O)N[*:3])N[*:1])[*:2]; hTyr(3S-OH,4S-OH) = N[C@H](C(=O)O)[C@H](O)[C@@H](O)c1ccc(O)cc1; Pro(3S-OH,4S-Me) = C[C@H]1CN[C@H](C(=O)O)[C@H]1O; X1 = CCCCCOc1ccc(-c2cc(-c3ccc(C(=O)*)cc3)no2)cc1; Gln(3R-OH) = NC(=O)C[C@@H](O)[C@H](N)C(=O)O; Hyp = O=C(O)[C@@H]1C[C@@H](O)CN1
endpoint_name: Number of isolates inhibited at MIC 0.5 μg/mL

molecule	measured_on	measured
CCCCCOc1ccc(-c2ccc(-c3ccc(C(=O)N[C@H]4C[C@@H](O)[C@@H](O)NC(=O)[C@@H]5[C@@H](O)[C@@H](C)CN5C(=O)[C@H]([C@@H](C)O)NC(=O)[C@H]([C@H](O)[C@@H](O)c5ccc(O)cc5)NC(=O)[C@@H]5C[C@@H](O)CN5C(=O)[C@H]([C@@H](C)O)NC4=O)cc3)cc2)cc1 [ANID, anidulafungin] ({pTerphenylCO(4''-OnC5H11)}-[Orn(4R-OH,5R-OH)]T[Hyp][hTyr(3S-OH,4S-OH)]T[Pro(3S-OH,4S-Me)]; lactam 1-C)	Candida orthopsilosis	2
CC[C@H](C)C[C@H](C)CCCCCCCCC(=O)N[C@H]1C[C@@H](O)[C@@H](NCCN)NC(=O)[C@@H]2[C@@H](O)CCN2C(=O)[C@H]([C@H](O)CCN)NC(=O)[C@H]([C@H](O)[C@@H](O)c2ccc(O)cc2)NC(=O)[C@@H]2C[C@@H](O)CN2C(=O)[C@H]([C@@H](C)O)NC1=O	Candida orthopsilosis	3
CCCCCOc1ccc(-c2cc(-c3ccc(C(=O)N[C@H]4C[C@@H](O)[C@@H](O)NC(=O)[C@@H]5[C@@H](O)[C@@H](C)CN5C(=O)[C@H]([C@H](O)CC(N)=O)NC(=O)[C@H]([C@H](O)[C@@H](O)c5ccc(O)c(OS(=O)(=O)O)c5)NC(=O)[C@@H]5C[C@@H](O)CN5C(=O)[C@H]([C@@H](C)O)NC4=O)cc3)no2)cc1 [MCF, micafungin] (X1-[Orn(4R-OH,5R-OH)]T[Hyp][hTyr(3S-OH,4S-OH,3'-OSO3H)][Gln(3R-OH)][Pro(3S-OH,4S-Me)]; lactam 1-C)	Candida orthopsilosis	3
CCCCCOc1ccc(-c2ccc(-c3ccc(C(=O)N[C@H]4C[C@@H](O)[C@@H](OCC[N+](C)(C)C)NC(=O)[C@@H]5[C@@H](O)[C@@H](C)CN5C(=O)[C@H]([C@@H](C)O)NC(=O)[C@H]([C@H](O)[C@@H](O)c5ccc(O)cc5)NC(=O)[C@@H]5C[C@@H](O)CN5C(=O)[C@H]([C@@H](C)O)NC4=O)cc3)cc2)cc1 [Compound 1] ({pTerphenylCO(4''-OnC5H11)}-[Orn(4R-OH,5R-OCH2CH2NMe3+)]T[Hyp][hTyr(3S-OH,4S-OH)]T[Pro(3S-OH,4S-Me)]; lactam 1-C)	Candida orthopsilosis	1

====

- Tested on: Candida krusei
- assay_overview: Broth microdilution of invasive fungal isolates (CLSI M27-A3/M38-A2)
- Assay type: cell-based
- protocol_conditions: 16 isolates
Starred links: 1 amine or outer side, 2 acyl side, 3 side chain; linkers in the order of their positions; H or OH if unused. Positions of bridges follow the written chain, without caps; N, C: chain ends. Non-standard residues stand in square brackets, D forms with d. Residues, ends and D or L forms follow the SMILES beside them. *: point of attachment. Orn(4R-OH,5R-OCH2CH2NMe3+) = C[N+](C)(C)CCO[C@@H](N[*:3])[C@H](O)C[C@H](N[*:1])C(=O)[*:2]; hTyr(3S-OH,4S-OH,3'-OSO3H) = N[C@H](C(=O)O)[C@H](O)[C@@H](O)c1ccc(O)c(OS(=O)(=O)O)c1; pTerphenylCO(4''-OnC5H11) = CCCCCOc1ccc(-c2ccc(-c3ccc(C(=O)*)cc3)cc2)cc1; Orn(4R-OH,5R-OH) = O=C([C@H](C[C@@H](O)[C@@H](O)N[*:3])N[*:1])[*:2]; hTyr(3S-OH,4S-OH) = N[C@H](C(=O)O)[C@H](O)[C@@H](O)c1ccc(O)cc1; Pro(3S-OH,4S-Me) = C[C@H]1CN[C@H](C(=O)O)[C@H]1O; X1 = CCCCCOc1ccc(-c2cc(-c3ccc(C(=O)*)cc3)no2)cc1; Gln(3R-OH) = NC(=O)C[C@@H](O)[C@H](N)C(=O)O; Hyp = O=C(O)[C@@H]1C[C@@H](O)CN1
endpoint_name: Number of isolates inhibited at MIC 0.06 μg/mL

molecule	measured
CCCCCOc1ccc(-c2ccc(-c3ccc(C(=O)N[C@H]4C[C@@H](O)[C@@H](OCC[N+](C)(C)C)NC(=O)[C@@H]5[C@@H](O)[C@@H](C)CN5C(=O)[C@H]([C@@H](C)O)NC(=O)[C@H]([C@H](O)[C@@H](O)c5ccc(O)cc5)NC(=O)[C@@H]5C[C@@H](O)CN5C(=O)[C@H]([C@@H](C)O)NC4=O)cc3)cc2)cc1 [Compound 1] ({pTerphenylCO(4''-OnC5H11)}-[Orn(4R-OH,5R-OCH2CH2NMe3+)]T[Hyp][hTyr(3S-OH,4S-OH)]T[Pro(3S-OH,4S-Me)]; lactam 1-C)	2
CCCCCOc1ccc(-c2ccc(-c3ccc(C(=O)N[C@H]4C[C@@H](O)[C@@H](O)NC(=O)[C@@H]5[C@@H](O)[C@@H](C)CN5C(=O)[C@H]([C@@H](C)O)NC(=O)[C@H]([C@H](O)[C@@H](O)c5ccc(O)cc5)NC(=O)[C@@H]5C[C@@H](O)CN5C(=O)[C@H]([C@@H](C)O)NC4=O)cc3)cc2)cc1 [ANID, anidulafungin] ({pTerphenylCO(4''-OnC5H11)}-[Orn(4R-OH,5R-OH)]T[Hyp][hTyr(3S-OH,4S-OH)]T[Pro(3S-OH,4S-Me)]; lactam 1-C)	9
CCCCCOc1ccc(-c2cc(-c3ccc(C(=O)N[C@H]4C[C@@H](O)[C@@H](O)NC(=O)[C@@H]5[C@@H](O)[C@@H](C)CN5C(=O)[C@H]([C@H](O)CC(N)=O)NC(=O)[C@H]([C@H](O)[C@@H](O)c5ccc(O)c(OS(=O)(=O)O)c5)NC(=O)[C@@H]5C[C@@H](O)CN5C(=O)[C@H]([C@@H](C)O)NC4=O)cc3)no2)cc1 [MCF, micafungin] (X1-[Orn(4R-OH,5R-OH)]T[Hyp][hTyr(3S-OH,4S-OH,3'-OSO3H)][Gln(3R-OH)][Pro(3S-OH,4S-Me)]; lactam 1-C)	8

====

- Test system: Candida albicans
- assay_overview: Broth microdilution of invasive fungal isolates (CLSI M27-A3/M38-A2)
- Type: cell-based
- protocol_conditions: 251 isolates
endpoint_name: Cumulative % of isolates inhibited at MIC ≤0.008 μg/mL (%)

molecule	unit_info	measured
CC[C@H](C)C[C@H](C)CCCCCCCCC(=O)N[C@H]1C[C@@H](O)[C@@H](NCCN)NC(=O)[C@@H]2[C@@H](O)CCN2C(=O)[C@H]([C@H](O)CCN)NC(=O)[C@H]([C@H](O)[C@@H](O)c2ccc(O)cc2)NC(=O)[C@@H]2C[C@@H](O)CN2C(=O)[C@H]([C@@H](C)O)NC1=O [CAS, caspofungin]	%	1.6

====

- System: C. albicans vaginal isolates
- assay_overview: Susceptibility testing of VVC clinical isolates at pH 7 and 4 (CLSI M27-A3)
- Assay type: cell-based, Candida albicans
- protocol_conditions: Candida albicans, 48 h, pH 4, fluconazole-resistant isolate 3; pH 4; 48 h; read-out: MIC
Starred links: 1 amine or outer side, 2 acyl side, 3 side chain; linkers in the order of their positions; H or OH if unused. Positions of bridges follow the written chain, without caps; N, C: chain ends. Non-standard residues stand in square brackets, D forms with d. Residues, ends and D or L forms follow the SMILES beside them. *: point of attachment. Orn(4R-OH,5R-OCH2CH2NMe3+) = C[N+](C)(C)CCO[C@@H](N[*:3])[C@H](O)C[C@H](N[*:1])C(=O)[*:2]; pTerphenylCO(4''-OnC5H11) = CCCCCOc1ccc(-c2ccc(-c3ccc(C(=O)*)cc3)cc2)cc1; hTyr(3S-OH,4S-OH) = N[C@H](C(=O)O)[C@H](O)[C@@H](O)c1ccc(O)cc1; Pro(3S-OH,4S-Me) = C[C@H]1CN[C@H](C(=O)O)[C@H]1O; Hyp = O=C(O)[C@@H]1C[C@@H](O)CN1
endpoint_name: MIC (µg/mL)

molecule	measured_on	endpoint_name	relation_sign	measured
CCC(C)n1ncn(-c2ccc(N3CCN(c4ccc(OCC5COC(Cn6cncn6)(c6ccc(Cl)cc6Cl)O5)cc4)CC3)cc2)c1=O (stereo not shown)	C. albicans vaginal isolates	MIC	=	0.5
OC(Cn1cncn1)(Cn1cncn1)c1ccc(F)cc1F	C. albicans vaginal isolates	MIC	>	64
CC[C@H](C)C[C@H](C)CCCCCCCCC(=O)N[C@H]1C[C@@H](O)[C@@H](NCCN)NC(=O)[C@@H]2[C@@H](O)CCN2C(=O)[C@H]([C@H](O)CCN)NC(=O)[C@H]([C@H](O)[C@@H](O)c2ccc(O)cc2)NC(=O)[C@@H]2C[C@@H](O)CN2C(=O)[C@H]([C@@H](C)O)NC1=O	C. albicans vaginal isolates	MIC	=	0.5
CCCCCOc1ccc(-c2ccc(-c3ccc(C(=O)N[C@H]4C[C@@H](O)[C@@H](OCC[N+](C)(C)C)NC(=O)[C@@H]5[C@@H](O)[C@@H](C)CN5C(=O)[C@H]([C@@H](C)O)NC(=O)[C@H]([C@H](O)[C@@H](O)c5ccc(O)cc5)NC(=O)[C@@H]5C[C@@H](O)CN5C(=O)[C@H]([C@@H](C)O)NC4=O)cc3)cc2)cc1 [Compound 1] ({pTerphenylCO(4''-OnC5H11)}-[Orn(4R-OH,5R-OCH2CH2NMe3+)]T[Hyp][hTyr(3S-OH,4S-OH)]T[Pro(3S-OH,4S-Me)]; lactam 1-C)	C. albicans vaginal isolates	MIC	=	0.5
